TARGET_ENTITY: Histone deacetylase 8 (Homo sapiens)
Sequence (Q9BY41 whole entry): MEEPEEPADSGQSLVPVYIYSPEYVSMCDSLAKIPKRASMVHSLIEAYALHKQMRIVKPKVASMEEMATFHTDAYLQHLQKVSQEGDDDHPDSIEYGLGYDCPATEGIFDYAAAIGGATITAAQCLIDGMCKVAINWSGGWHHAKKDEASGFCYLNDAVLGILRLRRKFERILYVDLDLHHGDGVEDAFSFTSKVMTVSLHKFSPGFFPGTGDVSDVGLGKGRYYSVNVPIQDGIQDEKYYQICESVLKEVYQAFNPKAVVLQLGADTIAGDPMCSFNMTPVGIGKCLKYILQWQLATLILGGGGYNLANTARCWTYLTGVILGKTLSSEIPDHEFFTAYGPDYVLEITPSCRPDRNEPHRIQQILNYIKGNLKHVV
pIC50: −log10 of the molar value.
MEASUREMENT_NAME: pIC50

Reference set, count: 2
> print(dat)
                            chemical.smiles  measurement
1  Cc1ccc(NC(=O)[C@@H]2Cc3ccc(OCC(=O)NO)cc3CN2C(=O)OC(C)(C)C)c(C)c1         5.42
2  CC(C)(C)OC(=O)N1Cc2cc(OCC(=O)NO)ccc2C[C@H]1C(=O)Nc1ccccc1         5.89

P: Cc1cccc(NC(=O)[C@@H]2Cc3ccc(OCC(=O)NO)cc3CN2C(=O)OC(C)(C)C)c1
Q: Cc1ccccc1NC(=O)[C@@H]1Cc2ccc(OCC(=O)NO)cc2CN1C(=O)OC(C)(C)C
Short answer wanted: higher pIC50, P or Q ? Bench note: the answer is the label of the chosen record.
P

----------
TARGET_ENTITY: Histone deacetylase 8 (Homo sapiens)
Sequence (Q9BY41 whole entry): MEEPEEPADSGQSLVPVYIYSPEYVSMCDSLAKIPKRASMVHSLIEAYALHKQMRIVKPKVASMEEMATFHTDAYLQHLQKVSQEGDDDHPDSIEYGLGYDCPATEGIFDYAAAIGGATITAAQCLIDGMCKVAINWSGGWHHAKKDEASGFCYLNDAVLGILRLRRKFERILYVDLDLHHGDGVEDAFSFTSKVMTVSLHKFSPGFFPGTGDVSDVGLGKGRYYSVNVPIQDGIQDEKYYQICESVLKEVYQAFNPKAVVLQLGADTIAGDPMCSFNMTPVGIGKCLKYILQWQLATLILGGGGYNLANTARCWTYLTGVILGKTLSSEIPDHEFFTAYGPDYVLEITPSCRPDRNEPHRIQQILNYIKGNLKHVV
pIC50: −log10 of the molar value.
MEASUREMENT_NAME: pIC50

> print(dat)
                            chemical.smiles  measurement
1  O=C(COc1ccc2c(c1)CN[C@H](C(=O)Nc1cccc(Cl)c1)C2)NO         5.49

1: Cc1ccc(NC(=O)[C@@H]2Cc3ccc(OCC(=O)NO)cc3CN2)c(C)c1
2: CC(C)(C)OC(=O)N1Cc2cc(OCC(=O)NO)ccc2C[C@H]1C(=O)Nc1cccc(Cl)c1
Which of the two items, 1 and 2 , has the greater recorded pIC50? Answer = label.
2

----------
Tested on: HCT-116
ASSAY_OVERVIEW: Antiproliferative activity against human HCT116 cells after 48 hrs by MTT assay
Type: functional, cell-based
CONDITION_DETAILS: HCT-116, 48 h
MEASUREMENT_NAME: IC50 (µM)

> print(dat)
                            chemical.smiles  measurement.name  measurement
1  O=C(COc1ccc2c(c1)CN(C(=O)OCc1ccccc1)[C@H](C(=O)NCCc1ccccc1)C2)NO              IC50          370

I: CC(C)(C)OC(=O)N1Cc2cc(OCC(=O)NO)ccc2C[C@H]1C(=O)Nc1cccc(Cl)c1
II: COc1ccc(NC(=O)[C@@H]2Cc3ccc(OCC(=O)NO)cc3CN2C(=O)OC(C)(C)C)cc1
III: O=C(COc1ccc2c(c1)CN[C@H](C(=O)Nc1cccc3ccccc13)C2)NO
Falling order of IC50, please. A complete answer lists every label in the requested sequence.
I, III, II
(I: 490 µM, III: 170 µM, II: 48 µM)
